Field: normalized growth. Provide a value for each of the compounds that follow.
# test description: chemical genetic growth profiling, strain panel (AID 1159580);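 also: tested at 20 µM; growth read once vehicle control cultures reached saturation at 30 °C; 1 = growth at the plate median or of vehicle wells; lower values mean less growth of the strain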
# test conditions: S. cerevisiae deletion strains, growth OD, locus YDL017W, strain CDC7, stronger effect = lower value
In all, about 5,500 compounds went through this assay and about 2,000 (36%) were called active. Another 18% or so got no clear call; they are omitted. Some of the results follow.
Give bare numbers.

| compound | normalized growth |
| --- | --- |
| CCOC(=O)c1c(N=Cc2cc(Br)c(Br)cc2O)sc2c1CCCC2 | 0.976 |
| CSc1c(C#N)c(-c2ccc(Cl)cc2)nn1C(=O)c1ccccc1Cl | 0.946 |
| CC12CC[C@@H](O)CC1=CC[C@@H]1C2CCC2(C)C(=O)CC[C@@H]12 (stereo partly specified) | 1.02 |
| CC(=O)C(Sc1nc2ccccc2s1)C(C)=O | 0.919 |
| N/C(=N/OC(=O)c1ccc(Cl)cc1)c1ccc(F)cc1F | 0.923 |

Consider the record given below.
QUERY: Any idea what its normalized growth is? The compound is CSc1cccc(N2C(=O)CC(c3c(Cl)cccc3Cl)CC2=O)c1
RESULT: 0.99

----------
# test description: chemical genetic growth profiling, strain panel (AID 1159580)
# test conditions: S. cerevisiae deletion strains, growth OD, locus YPR163C, strain tif3, stronger effect = lower value
The whole screen tested about 5,500 compounds, of which about 2,000 (36%) were called active. Inconclusive results (about 18%) are left out. This is one part of the list.
endpoint: normalized growth
Answers are plain numbers.

For orientation, consider the following solved cases.
| compound | normalized growth |
| --- | --- |
| COc1cc(/C=C/C(=O)O)cc(OC)c1OC | 1.03 |
| O=C(O)CCCCCCCCCCCCC1C=CCC1 (stereo not given) | 0.921 |
| CCOC(=O)CCCCCCCCCCCCC1C=CCC1 (stereo not given) | 0.0692 |
| COc1cc(/C=C/C(=O)O)ccc1O | 0.977 |

Consider the record given below.
QUERY: Any idea what its normalized growth is? The compound is O=C(O)CCCCC1SCC2NC(=O)NC21 (stereo not given)
RESULT: 1.01

----------
Field: normalized growth. Provide a value for each of the compounds that follow.
# test description: chemical genetic growth profiling, strain panel (AID 1159580)
# test conditions: S. cerevisiae deletion strains, growth OD, locus YGL167C, strain pmr1, stronger effect = lower value
In all, about 5,500 compounds went through this assay and about 2,000 (36%) were called active. About 18% were inconclusive and are not listed. The list shows a part of the results.
One number for each entry.

For orientation, consider the following solved cases.
| compound | normalized growth |
| --- | --- |
| OC1CCCCC1N1CCC(c2ccccc2)CC1 (stereo not given) | 0.986 |
| CS(=O)(=O)OCCCCOS(C)(=O)=O | 1.05 |
| COP(=S)(OC)Oc1ccc(SC)c(C)c1 | 0.993 |
| CC1=CC(=O)CC(C)(C)C1(O)/C=C/C(C)=C\C(=O)O (stereo not given) | 1.01 |
| NCCCCN=C(N)N | 1.02 |
| CO[C@@H]1[C@@H](O[C@@H]2O[C@H](C)[C@@H](O[C@H]3C[C@@](C)(O)[C@H](O)[C@H](C)O3)[C@H](N(C)C)[C@H]2O)[C@@H](CC=O)C[C@@H](C)[C@@H](O[C@H]2CC[C@H](N(C)C)[C@@H](C)O2)/C=C/C=C/C[C@H](C)OC(=O)C[C@H]1O | 1.01 |
| CC1(C)O[C@@H]2CC3C4CCC5=CC(=O)C=C[C@]5(C)C4[C@@H](O)C[C@]3(C)[C@]2(C(=O)CO)O1 (stereo not given in full) | 1.01 |
| CCOC(N)=O | 0.987 |

Batch lookup, normalized growth per entry.
1. C=CCN1CC[C@]23c4c5ccc(O)c4OC2C(=O)CC[C@@]3(O)[C@H]1C5 (stereo not given in full)
2. COc1cc(C)c2c(c1C=O)Oc1c(c(C)c(O)c3c1C(O)OC3=O)OC2=O (stereo not given)
3. CCOP(=S)(OCC)Oc1ccc2c(C)c(Cl)c(=O)oc2c1
4. COS(C)(=O)=O

RESULT:
[0.961, 1.01, 0.956, 0.997]

Batch lookup, normalized growth per entry.
1. NCc1ccc(S(N)(=O)=O)cc1
2. CC[C@@]1(C2O[C@@H](C3O[C@@](O)(CC)[C@H](C)C[C@@H]3C)C[C@@H]2C)CC[C@H]([C@]2(C)CCC3(C[C@H](O)[C@@H](C)[C@@H]([C@H](C)[C@@H](OC)[C@H](C)C(=O)O)O3)O2)O1 (stereo not given in full)
3. COc1ccc(-c2cc(C(F)F)nn2-c2ccc(S(N)(=O)=O)cc2)cc1F
4. C[C@]12CCC3c4ccc(OS(=O)(=O)O)cc4CCC3C1CCC2=O (stereo not given in full)

RESULT:
[0.997, 1.05, 0.999, 1]

Batch lookup, normalized growth per entry.
1. C#C[C@]1(O)CCC2C3CCc4cc(OC)ccc4C3CC[C@@]21C (stereo not given in full)
2. Nc1nccs1
3. CC[C@@H]1[C@@H](O)N2C3C[C@H]1C1C(O)[C@]4(C[C@@H]12)c1ccccc1N(C)[C@@H]34 (stereo not given in full)
4. CC(=O)O[C@H]1C[C@@H](OC(C)=O)C(C)(C)C2C[C@@H](OC(C)=O)[C@]3(C)C(CC[C@@]4(C)[C@H](c5ccoc5)C(=O)[C@H]5O[C@]543)[C@]21C (stereo not given in full)

RESULT:
1. 0.972
2. 0.981
3. 1.03
4. 1

----------
# test description: chemical genetic growth profiling, strain panel (AID 1159580);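 also: tested at 20 µM; growth read once vehicle control cultures reached saturation at 30 °C; 1 = growth at the plate median or of vehicle wells; lower values mean less growth of the strain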
# test conditions: S. cerevisiae deletion strains, growth OD, locus YDR388W
Out of some 5,500 compounds screened, about 2,000 (36%) were called active. Inconclusive results (about 18%) are left out. Cut-off read from the data, not from the text of the source: active = normalized growth mostly below about 0.91 (no sharp cut-off); inconclusive = no clear call, values can overlap the other calls; inactive = mostly above about 0.92. The list shows a part of the results.
Bench note: report the call from true (1) = active, false (0) = inactive

| compound | cat |
| --- | --- |
| c1cc2c(cc1[C@H]1OC[C@H]3[C@@H]1CO[C@H]3c1ccc3c(c1)OCO3)OCO2 | true (1) |
| O=C1N=C(O)CN1/N=C\c1ccc(-c2ccc([N+](=O)[O-])cc2)o1 | false (0) |
| CC(=O)O[C@H]1C[C@@H](OC(C)=O)C(C)(C)C2C[C@@H](OC(C)=O)[C@]3(C)C(CC[C@@]4(C)[C@H](c5ccoc5)C(=O)[C@H]5O[C@]543)[C@]21C (stereo not given in full) | false (0) |
| O=C1OCCN1/N=C\c1ccc([N+](=O)[O-])o1 | false (0) |

Now let's try a different one.
QUERY: Hey, what did the test say about CCCN(CCC)C(=O)C(CCC(=O)O)NC(=O)c1ccccc1 (stereo not given) ?
RESULT: false (0)

----------
Field: normalized growth. Provide a value for each of the molecules that follow.
# test description: chemical genetic growth profiling, strain panel (AID 1159580);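 also: tested at 20 µM; growth read once vehicle control cultures reached saturation at 30 °C; 1 = growth at the plate median or of vehicle wells; lower values mean less growth of the strain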
# test conditions: S. cerevisiae deletion strains, growth OD, locus YLR027C, strain aat2, stronger effect = lower value
The whole screen tested about 5,500 compounds, of which about 2,000 (36%) were called active. Roughly 18% stayed inconclusive and do not appear here. Some of the results follow.

Batch lookup, normalized growth per entry.
1. CCCN(CCC)CCc1cccc2c1CC(=O)N2
2. CCOC(N)=O
3. Nc1c(Br)cc(Br)cc1CNC1CCC(O)CC1 (stereo not given)
4. CC1=CC(=O)CC(C)(C)C1(O)/C=C/C(C)=C\C(=O)O (stereo not given)

RESULT:
1: 0.972 (inactive); 2: 0.996 (inactive); 3: 0.997 (inactive); 4: 1.03 (inactive)

Batch lookup, normalized growth per entry.
1. COP(=S)(OC)Oc1ccc(SC)c(C)c1
2. COC(=O)[C@H]1[C@H]2C[C@@H]3c4[nH]c5cc(OC)ccc5c4CCN3C[C@H]2C[C@@H](OC(=O)c2cc(OC)c(OC)c(OC)c2)[C@@H]1OC
3. CC(=O)OCC(=O)[C@@]12OC(C)(C)O[C@@H]1CC1C3C[C@H](F)C4=CC(=O)C=C[C@]4(C)[C@@]3(F)[C@@H](O)C[C@@]12C (stereo not given in full)
4. COc1cc2c(cc1O)CC1c3c(cc(O)c(OC)c3-2)CCN1C (stereo not given)

RESULT:
0.988 (inactive)
0.986 (inactive)
1.01 (inactive)
1.01 (inactive)

Batch lookup, normalized growth per entry.
1. C[C@@H]1C[C@@H]([C@H](O)CC2CC(=O)NC(=O)C2)C(=O)[C@@H](C)C1
2. COc1ccc2c(c1O)-c1c(OC)c(OC)cc3c1[C@H](C2)N(C)CC3

RESULT:
0.0609 (active)
0.987 (inactive)

----------
# test description: chemical genetic growth profiling, strain panel (AID 1159580);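 also: tested at 20 µM; growth read once vehicle control cultures reached saturation at 30 °C; 1 = growth at the plate median or of vehicle wells; lower values mean less growth of the strain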
# test conditions: S. cerevisiae deletion strains, growth OD, locus YAL040C, strain CLN3, stronger effect = lower value
Screen size: about 5,500 compounds; about 2,000 (36%) were called active. Another 18% or so got no clear call; they are omitted. The list shows a part of the results.
endpoint: normalized growth
One number for each entry.

For orientation, consider the following solved cases.
| compound | normalized growth |
| --- | --- |
| COC(=O)C(C)(N)Cc1ccc(O)cc1 (stereo unspecified) | 0.987 |
| CCCN1CCc2cc(O)cc3c2[C@H]1Cc1ccc(O)c(O)c1-3 | 1.03 |
| c1ccc(C2CC2)c(OCC2=NCCN2)c1 | 1.05 |

Batch lookup, normalized growth per entry.
1. N=C(N)SCCc1cccc(CCSC(=N)N)c1
2. CCCN(CCC)CCc1cccc2c1CC(=O)N2
3. CC1=C(C(=O)O)N2C(=O)[C@@H](NC(=O)C(N)C3=CCC=CC3)[C@H]2SC1 (stereo partly specified)
4. CCn1cc(C(=O)O)c(=O)c2ccc(Cc3ccccc3)nc21
5. O=c1cc(N2CCOCC2)oc2c(-c3ccccc3)cccc12
6. CNC(CC(=O)O)C(=O)O (stereo unspecified)
7. Cc1cn([C@H]2C[C@@H](N=[N+]=[N-])[C@@H](CO)O2)c(=O)[nH]c1=O

RESULT:
1. 1.05
2. 1.03
3. 1.02
4. 1
5. 0.996
6. 1.02
7. 1

Reference for the values: PubChem BioAssay AID1159580
